Target: DNA topoisomerase 2-alpha (Homo sapiens) (UniProt P11388)
Sequence (P11388 whole entry): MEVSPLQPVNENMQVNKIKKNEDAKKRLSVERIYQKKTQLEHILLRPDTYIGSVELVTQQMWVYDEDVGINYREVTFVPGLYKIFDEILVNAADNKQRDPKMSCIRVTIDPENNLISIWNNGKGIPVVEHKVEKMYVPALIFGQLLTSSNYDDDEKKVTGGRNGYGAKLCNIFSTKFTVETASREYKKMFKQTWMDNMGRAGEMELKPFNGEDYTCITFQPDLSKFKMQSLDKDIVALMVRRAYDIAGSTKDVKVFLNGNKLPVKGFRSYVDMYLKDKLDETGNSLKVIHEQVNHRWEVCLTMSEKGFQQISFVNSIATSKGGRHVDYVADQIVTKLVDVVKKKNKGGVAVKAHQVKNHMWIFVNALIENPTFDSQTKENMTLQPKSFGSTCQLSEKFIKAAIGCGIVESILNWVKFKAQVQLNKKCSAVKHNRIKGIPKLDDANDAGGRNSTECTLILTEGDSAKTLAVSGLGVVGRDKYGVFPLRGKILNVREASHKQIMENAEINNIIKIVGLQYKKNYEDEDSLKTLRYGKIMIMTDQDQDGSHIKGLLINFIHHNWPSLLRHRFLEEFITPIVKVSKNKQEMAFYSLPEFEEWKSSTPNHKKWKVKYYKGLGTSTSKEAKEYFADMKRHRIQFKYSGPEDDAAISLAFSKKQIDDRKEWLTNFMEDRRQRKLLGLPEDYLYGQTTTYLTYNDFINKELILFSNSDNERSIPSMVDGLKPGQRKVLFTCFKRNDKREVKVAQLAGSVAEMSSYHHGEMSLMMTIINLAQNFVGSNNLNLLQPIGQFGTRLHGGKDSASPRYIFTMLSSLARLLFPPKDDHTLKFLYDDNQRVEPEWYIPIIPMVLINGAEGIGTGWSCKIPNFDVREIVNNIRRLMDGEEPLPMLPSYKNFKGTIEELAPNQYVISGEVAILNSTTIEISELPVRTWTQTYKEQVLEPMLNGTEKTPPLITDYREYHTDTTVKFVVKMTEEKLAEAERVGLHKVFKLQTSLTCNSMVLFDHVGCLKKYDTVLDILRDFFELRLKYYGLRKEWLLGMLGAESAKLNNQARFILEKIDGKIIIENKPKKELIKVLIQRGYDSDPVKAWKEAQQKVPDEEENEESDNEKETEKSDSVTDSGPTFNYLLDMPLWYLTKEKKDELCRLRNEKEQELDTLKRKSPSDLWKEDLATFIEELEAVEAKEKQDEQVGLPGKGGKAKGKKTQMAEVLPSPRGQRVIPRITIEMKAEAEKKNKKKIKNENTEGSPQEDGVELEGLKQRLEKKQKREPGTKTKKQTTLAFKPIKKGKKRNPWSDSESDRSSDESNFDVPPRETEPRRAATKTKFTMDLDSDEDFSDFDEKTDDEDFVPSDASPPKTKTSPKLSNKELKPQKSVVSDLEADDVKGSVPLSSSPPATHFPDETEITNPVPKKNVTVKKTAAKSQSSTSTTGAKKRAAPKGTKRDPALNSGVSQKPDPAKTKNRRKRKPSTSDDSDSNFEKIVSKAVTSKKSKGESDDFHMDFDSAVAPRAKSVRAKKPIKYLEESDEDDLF
Test: Inhibition of human topoisomerase 2alpha-mediated relaxation of supercoiled pBR322 DNA at 2 uM after 30 mins by agarose gel electrophoresis
Calls of active or inactive are those of the source. No cut-off for these calls is given here.
READOUT: Inhibition of relaxation (qualitative call)

{"columns": ["SMILES NOTATION", "TESTED TARGET", "RESULT"],
 "data": [
  ["COc1cc([C@@H]2c3cc4c(cc3[C@@H](NC(=O)c3ccc(NC(=O)NCCCl)cc3)[C@H]3COC(=O)[C@H]23)OCO4)cc(OC)c1OC", "DNA topoisomerase 2-alpha (Homo sapiens) (UniProt P11388)", "Active"],
  ["COc1ccc(NC(=O)Nc2ccc(C(=O)N[C@@H]3c4cc5c(cc4[C@@H](c4cc(OC)c(OC)c(OC)c4)[C@H]4C(=O)OC[C@@H]43)OCO5)cc2)cc1", "DNA topoisomerase 2-alpha (Homo sapiens) (UniProt P11388)", "Active"],
  ["COc1cc([C@@H]2c3cc4c(cc3[C@@H](NC(=O)c3ccc(NC(=O)NCCBr)cc3)[C@H]3COC(=O)[C@H]23)OCO4)cc(OC)c1OC", "DNA topoisomerase 2-alpha (Homo sapiens) (UniProt P11388)", "Active"],
  ["COc1cc([C@@H]2c3cc4c(cc3[C@@H](NC(=O)c3ccc(NC(=O)Nc5ccc(Cl)cc5)cc3)[C@H]3COC(=O)[C@H]23)OCO4)cc(OC)c1OC", "DNA topoisomerase 2-alpha (Homo sapiens) (UniProt P11388)", "Active"]
]}

* * *

System: A549
Test: Growth inhibition of human A549 cells after 48 hrs by sulforhodamine B assay
Assay type: functional
Settings: A549, 48 h
READOUT: GI50 (µM)
Kindly provide the numeric value in µM only, without the unit symbol.

Solved entries:
{"columns": ["MOLECULE", "GI50 (µM)"],
 "data": [
  ["COc1cc([C@@H]2c3cc4c(cc3[C@@H](NC(=O)c3ccc(NC(=O)NCCCl)cc3)[C@H]3COC(=O)[C@H]23)OCO4)cc(OC)c1OC", 1.12],
  ["COc1cc([C@@H]2c3cc4c(cc3[C@@H](O[C@@H]3O[C@@H]5CO[C@@H](C)O[C@H]5[C@H](O)[C@H]3O)[C@H]3COC(=O)[C@H]23)OCO4)cc(OC)c1O [ETOPOSIDE]", 3.08],
  ["COc1cc([C@@H]2c3cc4c(cc3[C@@H](NC(=O)c3ccc(NC(=O)Nc5ccc(Br)s5)cc3)[C@H]3COC(=O)[C@H]23)OCO4)cc(OC)c1OC", 1.4]
]}

Return GI50 (reported value) for this molecule: `COc1cc([C@@H]2c3cc4c(cc3[C@@H](NC(=O)c3ccc(NC(=O)Nc5cc(C(F)(F)F)cc(C(F)(F)F)c5)cc3)[C@H]3COC(=O)[C@H]23)OCO4)cc(OC)c1OC`
2.98

* * *

Tested on: SiHa
Assay: Growth inhibition of human SiHa cells after 48 hrs by sulforhodamine B assay
Format: functional
Active and inactive are the calls of the source. The rule behind the calls is not given here.
READOUT: GI50

Completed entries (count: 6):
{"columns": ["COMPOUND", "TESTED TARGET", "READOUT", "RESULT"],
 "data": [
  ["COc1cc([C@@H]2c3cc4c(cc3[C@@H](O[C@@H]3O[C@@H]5CO[C@@H](C)O[C@H]5[C@H](O)[C@H]3O)[C@H]3COC(=O)[C@H]23)OCO4)cc(OC)c1O [ETOPOSIDE]", "SiHa", "GI50", "3.11 µM"],
  ["COc1cccc2c1C(=O)c1c(O)c3c(c(O)c1C2=O)C[C@@](O)(C(=O)CO)C[C@@H]3O[C@H]1C[C@H](N)[C@H](O)[C@H](C)O1", "SiHa", "GI50", "0.17 µM"],
  ["COc1cc([C@@H]2c3cc4c(cc3[C@@H](NC(=O)c3ccc(NC(=O)Nc5c(Cl)cccc5Cl)cc3)[C@H]3COC(=O)[C@H]23)OCO4)cc(OC)c1OC", "SiHa", "GI50", "inactive"],
  ["COc1cc([C@@H]2c3cc4c(cc3[C@@H](NC(=O)c3ccc(NC(=O)Nc5ccc(Br)s5)cc3)[C@H]3COC(=O)[C@H]23)OCO4)cc(OC)c1OC", "SiHa", "GI50", "2.9 µM"],
  ["COc1cc([C@@H]2c3cc4c(cc3[C@@H](NC(=O)c3ccc(NC(=O)NCCCl)cc3)[C@H]3COC(=O)[C@H]23)OCO4)cc(OC)c1OC", "SiHa", "GI50", "inactive"],
  ["COc1cc([C@@H]2c3cc4c(cc3[C@@H](NC(=O)c3ccc(NC(=O)NCc5ccco5)cc3)[C@H]3COC(=O)[C@H]23)OCO4)cc(OC)c1OC", "SiHa", "GI50", "inactive"]
]}

Report value only: GI50, SiHa, `COc1cc([C@@H]2c3cc4c(cc3[C@@H](NC(=O)c3ccc(NC(=O)Nc5ccc(F)c(Cl)c5)cc3)[C@H]3COC(=O)[C@H]23)OCO4)cc(OC)c1OC`
inactive

Quote SiHa GI50 for entry `COc1cc([C@@H]2c3cc4c(cc3[C@@H](NC(=O)c3ccc(NC(=O)Nc5cccc6ccccc56)cc3)[C@H]3COC(=O)[C@H]23)OCO4)cc(OC)c1OC` .
2.3 µM

* * *

Below, each of the compounds is paired with its reported GI50 value.
Tested on: A549
Assay: Growth inhibition of human A549 cells after 48 hrs by sulforhodamine B assay
Assay type: functional
Conditions: A549, 48 h
Answer by giving the amount and then stating its unit.

Worked cases, GI50 given:
{"columns": ["SMILES NOTATION", "TESTED TARGET", "RESULT"],
 "data": [
  ["COc1cc([C@@H]2c3cc4c(cc3[C@@H](NC(=O)c3ccc(NC(=O)Nc5ccc(F)c(Cl)c5)cc3)[C@H]3COC(=O)[C@H]23)OCO4)cc(OC)c1OC", "A549", "1500 nM"],
  ["COc1cc([C@@H]2c3cc4c(cc3[C@@H](NC(=O)c3ccc(NC(=O)NCCBr)cc3)[C@H]3COC(=O)[C@H]23)OCO4)cc(OC)c1OC", "A549", "100 nM"],
  ["COc1ccc(NC(=O)Nc2ccc(C(=O)N[C@@H]3c4cc5c(cc4[C@@H](c4cc(OC)c(OC)c(OC)c4)[C@H]4C(=O)OC[C@@H]43)OCO5)cc2)cc1", "A549", "1500 nM"],
  ["COc1cc([C@@H]2c3cc4c(cc3[C@@H](NC(=O)c3ccc(NC(=O)Nc5ccc(Cl)cc5)cc3)[C@H]3COC(=O)[C@H]23)OCO4)cc(OC)c1OC", "A549", "2140 nM"],
  ["COc1cc([C@@H]2c3cc4c(cc3[C@@H](NC(=O)c3ccc(NC(=O)NCc5ccco5)cc3)[C@H]3COC(=O)[C@H]23)OCO4)cc(OC)c1OC", "A549", "2620 nM"]
]}

Note: attention shifts to another entry.
Write down GI50 measured for item `COc1cc([C@@H]2c3cc4c(cc3[C@@H](NC(=O)c3ccc(NC(=O)Nc5cccc6ccccc56)cc3)[C@H]3COC(=O)[C@H]23)OCO4)cc(OC)c1OC`
2010 nM

* * *

Test system: KB
Assay: Growth inhibition of human KB cells after 48 hrs by sulforhodamine B assay
Type: functional
Activity calls are given as the source filed them. The calls are words filed in the database; no cut-off is given here.
READOUT: GI50

Recorded results for 4 molecules are shown here.
{"columns": ["MOLECULE", "TESTED TARGET", "GI50"],
 "data": [
  ["COc1cc([C@@H]2c3cc4c(cc3[C@@H](NC(=O)c3ccc(NC(=O)NCCBr)cc3)[C@H]3COC(=O)[C@H]23)OCO4)cc(OC)c1OC", "KB", "inactive"],
  ["COc1cc([C@@H]2c3cc4c(cc3[C@@H](O[C@@H]3O[C@@H]5CO[C@@H](C)O[C@H]5[C@H](O)[C@H]3O)[C@H]3COC(=O)[C@H]23)OCO4)cc(OC)c1O [ETOPOSIDE]", "KB", "0.31 µM"],
  ["COc1cc([C@@H]2c3cc4c(cc3[C@@H](NC(=O)c3ccc(NC(=O)Nc5cc(C)cc(C)c5)cc3)[C@H]3COC(=O)[C@H]23)OCO4)cc(OC)c1OC", "KB", "2.31 µM"],
  ["COc1cc([C@@H]2c3cc4c(cc3[C@@H](NC(=O)c3ccc(NC(=O)Nc5ccc(Cl)cc5)cc3)[C@H]3COC(=O)[C@H]23)OCO4)cc(OC)c1OC", "KB", "inactive"]
]}

Tell me measured GI50 for `COc1ccc(NC(=O)Nc2ccc(C(=O)N[C@@H]3c4cc5c(cc4[C@@H](c4cc(OC)c(OC)c(OC)c4)[C@H]4C(=O)OC[C@@H]43)OCO5)cc2)cc1` please.
2.31 µM

Give the measured GI50 for `COc1cc([C@@H]2c3cc4c(cc3[C@@H](NC(=O)c3ccc(NC(=O)Nc5ccc(Br)s5)cc3)[C@H]3COC(=O)[C@H]23)OCO4)cc(OC)c1OC`
2.5 µM
